Kindly supply the reported CC50 at 72 h values for the records listed here.
Measurement Protocol: Cytotoxicity against African green monkey Vero cells assessed as cell viability measured after 72 hrs by MTT assay
Assay type: toxicity, cell-based
Condition Set: chlorocebus sabaeus
Provide only the numeric value, understood in µM.

Any idea what its CC50 at 72 h is? The compound is N#Cc1cc(Nc2ccc(-c3ccccc3)cc2)nc(NCCN2CCCCC2)n1
25.4

Next compound up: Nc1ccc(-c2ccc(Nc3cc(C(F)(F)F)nc(NCCN4CCCCC4)n3)cc2)cc1
17.8

And what about the compound c1ccc(-c2ccc(Nc3nc(NCCN4CCCCC4)nc4ccsc34)cc2)cc1 ?
7.5

Follow-up item: CC1(C)CC(Nc2nc(C#N)cc(Nc3ccc(-c4ccccc4)cc3)n2)CC(C)(C)N1
7.5

Continue with FC(F)(F)c1cc(Nc2ccc(-c3ccccc3)cc2)nc(NCCN2CCCCC2)n1
5.74

And for CN(Cc1ccc(Cl)cc1)c1cc(C(F)(F)F)nc(NCCN2CCCCC2)n1 ?
8.18

Input CC1(C)CC(Nc2nccc(Nc3ccc(Cl)cc3)n2)CC(C)(C)N1
5.19

Do the same for Fc1ccc(CNc2cc(C(F)(F)F)nc(NCCN3CCCCC3)n2)cc1 please
47.6

Same again, this time with FC(F)(F)c1cc(Nc2ccc(Cl)cc2)nc(NCCN2CCCCC2)n1
18.8

Lookup COc1ccc(CNc2cc(C(F)(F)F)nc(NCCN3CCCCC3)n2)cc1
38.2

Same question, CC1(C)CC(Nc2nc(Nc3ccc(-c4ccccc4)cc3)cc(C(F)(F)F)n2)CC(C)(C)N1 this time
2.06
